Every entry's value here was drawn from ChEMBL document CHEMBL1201862.

Test system: U-251
test method notes: NCI tumour cell line growth inhibition, 48 h
The source made the active and inactive calls. No stated cut-off is given here; in the data, active = GI50 up to about 1.1 µM and inactive = higher.
Returns: one label drawn from label 1 for active, label 0 for inactive

[
  {
    "compound": "ClCc1c(-c2ccccc2)nn(-c2ccccc2)c1CCl",
    "label class": "label 0"
  }
]

Ask: Which outcome was entered for the compound O=C(c1ccccc1)c1ccc2c(c1)NC(=O)c1ccccc1SSc1ccccc1C(=O)N2 in this test?
Reply: label 0

Ask: Which outcome was entered for the compound FC(F)(F)C1=NC(=NNc2nnc(-c3ccccc3)c(-c3ccccc3)n2)N=C(C(F)(F)F)C1 in this test?
Reply: label 0

Ask: Which outcome was entered for the compound Clc1ccc(Nc2nnc(CCCCCCCCc3nnc(Nc4ccc(Cl)cc4)o3)o2)cc1 in this test?
Reply: label 0

Ask: Which outcome was entered for the compound CCC(=O)Nc1ncnc2ncn(C(=O)CC)c12 in this test?
Reply: label 0

Ask: Which outcome was entered for the compound Cc1ccc2c(ccc(/C=C/c3ccc(O)c4ncccc34)[n+]2C)c1 in this test?
Reply: label 0

Ask: Which outcome was entered for the compound Clc1cccc(-c2nc3cccc4c3n2Cc2ncccc2-4)c1 in this test?
Reply: label 0

Ask: Which outcome was entered for the compound O=C1OC(/C=C/c2ccccc2)C(=O)C1=O (stereo not given) in this test?
Reply: label 0

Ask: Which outcome was entered for the compound Cc1cc(C)nc(NS(=O)(=O)c2ccc(Nc3c4ccc(Cl)cc4nc4c(C(=O)Nc5ccc(S(N)(=O)=O)cc5)cccc34)cc2)n1 in this test?
Reply: label 0

Ask: Which outcome was entered for the compound Cn1ccnc1SC(F)(F)c1nc2ccccc2o1 in this test?
Reply: label 0

* * *

Test system: MDA-MB-435
test method notes: NCI tumour cell line growth inhibition, 48 h
Active and inactive are the calls of the source. Rule as the data show it: active = GI50 up to about 1.1 µM and inactive = higher.
quantity measured: GI50

Some solved cases for reference:
[
  {
    "molecule": "CC(C)CCNC(=O)c1ccc(CNC(=O)/C=C/c2ccc3ccccc3c2)cc1",
    "tested on": "MDA-MB-435",
    "GI50": "> 100 µM (inactive)"
  },
  {
    "molecule": "COc1ccc(-n2c(N)c(C#N)c(C#N)c2-c2ccco2)cc1",
    "tested on": "MDA-MB-435",
    "GI50": "> 100 µM (inactive)"
  }
]

Read the next record carefully.
Form: molecule = COc1cc(C=C2N=C(c3ccccc3)N(n3c(-c4ccccc4)nc4ccccc4c3=O)C2=O)cc(OC)c1OC ; GI50 = 24.3 µM (inactive)

* * *

Test system: COLO 205
test method notes: NCI tumour cell line growth inhibition, 48 h
Active and inactive are the calls of the source. Rule as the data show it: active = GI50 up to about 1.1 µM and inactive = higher.
Item-by-item account of GI50

Some solved cases for reference:
[
  {
    "molecule": "c1ccc(C(C2=Nc3cccc4cccc(c34)N2)c2ccccc2)cc1",
    "GI50": "18.9 µM (inactive)"
  },
  {
    "molecule": "Oc1cccc(-c2nc3cc(F)ccc3s2)c1",
    "GI50": "15.1 µM (inactive)"
  },
  {
    "molecule": "CCOC(=O)/C=C/[C@H](O)[C@@H](O)/C=C/C(=O)OCC",
    "GI50": "32.4 µM (inactive)"
  }
]

Read the next record carefully.
Form: molecule = O=C1Oc2ccccc2C(=O)/C1=C/NC(=S)NCc1ccccc1 ; GI50 = > 100 µM (inactive)

* * *

System: HCT-116
test method notes: NCI tumour cell line growth inhibition, 48 h
Calls of active or inactive are those of the source. Cut-off read from the data, not from the text of the source: active = GI50 up to about 1.1 µM and inactive = higher.
quantity measured: GI50

[
  {
    "chemical string": "CSc1nc(=S)[nH]c2[nH]nc(C)c12",
    "GI50": "> 100 µM (inactive)"
  },
  {
    "chemical string": "O=c1[nH]cc(COCCO)c(=O)[nH]1",
    "GI50": "> 100 µM (inactive)"
  }
]

Read the next record carefully.
Form: compound = O=C(c1cccs1)N(Cc1cccnc1)C(=S)N(Cc1cccnc1)C(=O)c1cccs1 ; GI50 = 45.8 µM (inactive)

* * *

Tested on: HOP-62
test method notes: NCI tumour cell line growth inhibition, 48 h
Activity calls are given as the source filed them. Cut-off read from the data, not from the text of the source: active = GI50 up to about 1.1 µM and inactive = higher.
Item-by-item account of GI50

[
  {
    "compound": "CSc1nc(Cl)c2c(n1)Sc1nc3cc4c(cc3n1C2O)OCCO4 (stereo not given)",
    "GI50": "0.419 µM (active)"
  },
  {
    "compound": "CC(=O)C1=C(O)/C(=C\\c2ccco2)OC1=O",
    "GI50": "> 10 µM (inactive)"
  },
  {
    "compound": "COP(=O)(OC)C(O)/C=C/c1ccco1 (stereo not given)",
    "GI50": "> 100 µM (inactive)"
  },
  {
    "compound": "O=C1C=C2CCC[C@H]3OC(=O)C[C@@]23CC1",
    "GI50": "> 100 µM (inactive)"
  },
  {
    "compound": "O=C1CCCCC1C(O)(C(F)(F)F)C(F)(F)Cl (stereo not given)",
    "GI50": "> 10 µM (inactive)"
  },
  {
    "compound": "COc1ccccc1N1C(=O)C2c3[nH]c4ccccc4c3C3CCC(C(C)(C)C)CC3C2C1=O (stereo not given)",
    "GI50": "> 100 µM (inactive)"
  }
]

Form: compound = COC(=O)c1cc(CC2Cc3cc4c(cc3C2)CCC4)cc2c1CCC2 ; GI50 = > 100 µM (inactive)

Form: compound = COc1ccc(OC)c(NC(=O)C2=C(C)NC(C)=C(C(=O)Nc3cc(OC)ccc3OC)C2c2ccccc2)c1 ; GI50 = > 100 µM (inactive)

Form: compound = O=C1CCCSCCCC(=O)CCCSCCC1 ; GI50 = > 100 µM (inactive)

Form: compound = O=C1NC(=O)/C(=N\c2cccc3c(=O)[nH][nH]c(=O)c23)C(c2nc3ccccc3s2)C1=O (stereo not given) ; GI50 = > 100 µM (inactive)

Form: compound = CC(C)CCNC(=O)c1ccc(CNC(=O)/C=C/c2ccc3ccccc3c2)cc1 ; GI50 = > 100 µM (inactive)

* * *

Test system: UACC-62
test method notes: NCI tumour cell line growth inhibition, 48 h
Active and inactive are the calls of the source. Rule as the data show it: active = GI50 up to about 1.1 µM and inactive = higher.
Returns: one label drawn from 1 (active), -1 (inactive)

Ask: Which outcome was entered for the compound CC1(C)CC(O)C2=C(O1)C(=O)c1ncccc1C2=O (stereo not given) in this test?
Reply: -1

Ask: Which outcome was entered for the compound OC(c1ccco1)C(F)(F)c1nc2ccccc2o1 (stereo not given) in this test?
Reply: -1

* * *

System: SF-539
test method notes: NCI tumour cell line growth inhibition, 48 h
Activity calls are given as the source filed them. No stated cut-off is given here; in the data, active = GI50 up to about 1.1 µM and inactive = higher. Bridge positions count the residues as written; N and C are the ends. Square brackets hold non-standard residues; d marks the D form. Peptide text beside a SMILES is read from it. * marks the point of attachment. Cya = N[CH](CS(=O)(=O)O)C(=O)O; X49 = CC(C)CCCCCCCC(O)CC(=O)*; GABA = NCCCC(=O)O
quantity measured: GI50

Some solved cases for reference:
[
  {
    "molecule": "CCOC(=O)N1CCN(C(=O)Nc2cccc3ccccc23)CC1",
    "GI50": "> 10 µM (inactive)"
  },
  {
    "molecule": "CC(C)CCCCCCCC(O)CC(=O)NC(CS(=O)(=O)O)C(=O)NC(CC(C)C)C(=O)NCCCC(=O)NC(Cc1c[nH]cn1)C(=O)NC(C)C(=O)NC1C(=O)NC(C(C)O)C(=O)NC(Cc2c[nH]cn2)C(=O)NC(C)C(=O)NC(C(C)O)C(=O)OC1C (stereo unspecified) (X49-[Cya]L[GABA]HATTHAT; ester 6-C; configuration not given here)",
    "GI50": "> 25 µM (inactive)"
  },
  {
    "molecule": "Nc1ccc(/N=N/c2ccccc2)cc1",
    "GI50": "35.2 µM (inactive)"
  },
  {
    "molecule": "Cc1cccc(NC2=NC(=O)C(CC(=O)Nc3ccccc3Cl)S2)c1 (stereo unspecified)",
    "GI50": "> 100 µM (inactive)"
  },
  {
    "molecule": "CC(C)(C)[C@H]1CO[C@]2(C)[C@@H]3C[C@@H]3C(=O)N12",
    "GI50": "> 100 µM (inactive)"
  },
  {
    "molecule": "CC[C@H](C)C1=C(O)[N@+]2([O-])Oc3ccc(-c4c(O)c(O)c(-c5ccc(OC(C)=O)cc5)c(OC(C)=O)c4OC(C)=O)cc3O[C@]2([C@@H](C)CC)C(=O)N1O",
    "GI50": "13.1 µM (inactive)"
  }
]

Form: molecule = C/C=C1\CN2CCc3c([nH]c4ccccc34)C2CC1CCO (stereo unspecified) ; GI50 = > 100 µM (inactive)

Form: molecule = O=C1CCCC2=C1CC1=C(CCCC1=O)N2c1ccc(-c2ccccc2)cc1 ; GI50 = > 72.6 µM (inactive)

Form: molecule = COc1cc(C=C2N=C(c3ccccc3)N(n3c(-c4ccccc4)nc4ccccc4c3=O)C2=O)cc(OC)c1OC ; GI50 = 18.7 µM (inactive)

Form: molecule = COc1ccc(N2CCN(c3ccc4c(c3)NCC(=O)N4)CC2)cc1 ; GI50 = 23.6 µM (inactive)

Form: molecule = Nc1nc(O)c([I+]c2ccccc2)c(=O)[nH]1 ; GI50 = > 100 µM (inactive)
